Data origin, for the record: ChEMBL document CHEMBL1143844

- PROTOCOL DETAILS: Inhibition of HIV1 reverse transcriptase 41L/67N/70R/184V/210W/215Y mutant by heteropolymeric DNA polymerase assay
- Design: species or system Human immunodeficiency virus 1
QUANTITY: IC50

Task: Bench note: what IC50 did C[C@H](Cn1cnc2c(N)ncnc21)OCP(=O)(O)OP(=O)(O)OP(=O)(O)O show?
Output: 1.4 µM

Task: Bench note: what IC50 did Nc1nc(=O)c2ncn([C@H]3C=C[C@@H](COP(=O)(O)OP(=O)(O)OP(=O)(O)O)C3)c2[nH]1 [CARBOVIR 5'-TRIPHOSPHATE, (-)-] show?
Output: 2.7 µM

Task: Bench note: what IC50 did Nc1nc2c(ncn2[C@H]2CO[C@@H](COP(=O)(O)OP(=O)(O)OP(=O)(O)O)O2)c(=O)[nH]1 show?
Output: 0.14 µM

Task: Bench note: what IC50 did Cc1cn([C@H]2CO[C@@H](COP(=O)(O)OP(=O)(O)OP(=O)(O)O)O2)c(=O)[nH]c1=O show?
Output: 0.16 µM
